Readings of AC50 for the listed compounds
# Subject of test: human PAH with the R408W mutation (Homo sapiens, UniProt P00439, R408W)
# Construct: expressed in transfected cells
# Sequence (P00439 whole entry R408W): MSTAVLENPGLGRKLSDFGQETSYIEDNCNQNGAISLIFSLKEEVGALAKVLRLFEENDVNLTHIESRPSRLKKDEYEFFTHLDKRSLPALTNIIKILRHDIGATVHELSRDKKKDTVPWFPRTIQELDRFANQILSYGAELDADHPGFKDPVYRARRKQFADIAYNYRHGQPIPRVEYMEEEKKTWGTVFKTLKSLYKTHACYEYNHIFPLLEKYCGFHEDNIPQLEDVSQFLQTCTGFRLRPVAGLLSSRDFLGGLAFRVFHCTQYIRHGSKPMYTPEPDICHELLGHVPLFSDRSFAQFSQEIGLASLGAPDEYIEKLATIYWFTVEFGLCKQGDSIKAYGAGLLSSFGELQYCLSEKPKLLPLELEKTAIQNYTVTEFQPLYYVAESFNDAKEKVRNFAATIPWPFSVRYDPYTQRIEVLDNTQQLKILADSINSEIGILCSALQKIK
# Test: Cell Based Phenylalanine Flux Assay
# Measurement conditions: A375 cells expressing human R408W PAH; 24 hrs compound incubation; 13C-Tyrosine by LC-MS; average where tested multiple times; read-out: AC50

{"Compound": "O=C(c1cnc(-c2ccc(F)cn2)s1)N1CCc2[nH]cnc2[C@H]1c1nc2ccccc2s1 [Example 1339]", "Reading": "< 500 nM"}
{"Compound": "O=C(c1oc(NC2CC2)nc1C(F)F)N1CCc2[nH]cnc2[C@@H]1c1nc2ccccc2s1 [Example 1716]", "Reading": "1000 to 5000 nM"}

// moving on: another record for AC50
### Prompt What value of measured AC50 is listed for Cc1nc(CCN(C)C)oc1C(=O)N1CCc2[nH]cnc2[C@H]1c1nc2ccccc2s1 [Example 1659] ?
### Response 1000 to 5000 nM

* * *

Below, each entry is listed with its recorded AC50.
# Subject of test: human PAH with the R408W mutation (Homo sapiens, UniProt P00439, R408W)
# Construct: expressed in transfected cells
# Test: Cell Based Phenylalanine Flux Assay
# Measurement conditions: A375 cells expressing human R408W PAH; 24 hrs compound incubation; 13C-Tyrosine by LC-MS; average where tested multiple times; read-out: AC50

Below: 2 molecules and their reported AC50.
{"Molecule": "Cc1cccc2sc([C@H]3c4nc[nH]c4CCN3C(=O)c3cncs3)nc12", "Reading": "1000 to 5000 nM"}
{"Molecule": "Cc1cccc2sc([C@H]3c4nc[nH]c4CCN3C(=O)c3ocnc3C(F)F)nc12", "Reading": "1000 to 5000 nM"}

### Prompt Which AC50 is listed for O=C(c1cnn2cc(F)ccc12)N1CCc2[nH]cnc2[C@@H]1c1nc2ccccc2s1 ?
### Response > 5000 nM

### Prompt Next entry: O=C(c1oc(-c2ccccn2)nc1Br)N1CCc2[nH]cnc2[C@H]1c1nc2ccccc2s1
### Response < 500 nM

* * *

# Subject of test: human PAH with the R408W mutation (Homo sapiens, UniProt P00439, R408W)
# Construct: expressed in transfected cells
# Test: Cell Based Phenylalanine Flux Assay
# Measurement conditions: A375 cells expressing human R408W PAH; 24 hrs compound incubation; 13C-Tyrosine by LC-MS; average where tested multiple times; read-out: AC50
Measured property: AC50

Known results for compounds:
{"Structure smiles": "COCc1ccc2c(C(=O)N3CCc4[nH]cnc4[C@H]3c3nc4ccccc4s3)c(C#N)nn2c1", "Reading": "< 500 nM"}
{"Structure smiles": "Cc1nc(C2CC2)oc1C(=O)N1CCc2[nH]cnc2[C@@H]1c1nc2ccccc2s1", "Reading": "> 5000 nM"}
{"Structure smiles": "CN(C)CCc1ccc2c(C(=O)N3CCc4[nH]cnc4[C@H]3c3nc4c(F)cccc4s3)cnn2c1", "Reading": "500 to 1000 nM"}

Now take the following compound into account.
### Prompt GET /values?readout=AC50&item= Cn1cc(-c2nnc(C(=O)N3CCc4[nH]cnc4[C@@H]3c3nc4ccccc4s3)o2)cn1
### Response 1000 to 5000 nM

* * *

# Subject of test: human PAH with the R408W mutation (Homo sapiens, UniProt P00439, R408W)
# Construct: expressed in transfected cells
# Test: Cell Based Phenylalanine Flux Assay
# Measurement conditions: A375 cells expressing human R408W PAH; 24 hrs with compound; 13C-Tyrosine by LC-MS; average where tested multiple times; read-out: AC50
Measured property: AC50

{"Compound": "CC(C)(O)c1cc(C(=O)N2CCc3[nH]cnc3C2c2nc3c(F)cccc3s2)sn1 (stereo not drawn)", "AC50": "> 5 µM"}

### Prompt Reported AC50 for human PAH with the R408W mutation (Homo sapiens, UniProt P00439, R408W), given COc1ccn2ncc(C(=O)N3CCc4[nH]cnc4C3c3nc4ccc(Cl)cc4[nH]3)c2c1 (stereo not drawn) ?
### Response 1 to 5 µM

### Prompt Item: O=C(c1cnc(Br)s1)N1CCc2[nH]cnc2C1c1nc2ccccc2s1 (stereo not drawn)
### Response > 5 µM
